- System: MS2 coat protein
- testSummary: apparent KD of MS2 coat protein; designed switch direction (-1 OFF switch, 1 ON switch): 1; higher = weaker reporter binding
- particulars: input ligand: FMN 200 uM
Reported apparent KD of MS2 coat protein by item:
Provide the measurement as a number trailed by its unit.

# annotated cases, reported apparent KD of MS2 coat protein shown
GUAGCAUACCGAGGAUAUUCAUAUUAUAACAUGAGGAUCACCCAUGUAGGUCGAUUACGACCUUGGGAGAAGGCGGAAUGCUAC [Xeonanis - 20 Mod35] (Eterna round: R96, puzzle: Same State NG 2) :: 34.7 nM
GUUACAUGAGGAUCACCCAUGUAUGUGUGGGAGUAAGUGUCUUAGGAUAUCUAUGAUUUAAUUUUAGAGAAGGAAGAUUGUUGU [JMF's solution 86] (Eterna round: R96, puzzle: Same State NG 3) :: 112 nM
GUAGCAUACCGAGGAUAUUCAUAUUAUAACAUGAGGAUCACCCAUGUAGGCCGAUUACGGCCUUGGGAGAAGGCGGAAUGCUAC [Xeonanis - 20 Mod19] (Eterna round: R96, puzzle: Same State NG 2) :: 27.9 nM

Item GGAAGGAGGUCAGGAUAUGGAUGGAAGGUACAUGAGGAUCACCCAUGUUACGGAGGAAGGAAACGUUAGAAGGGAUAAGGAAGG [AK SSNG2-V2-2.1] (Eterna round: R96, puzzle: Same State NG 2) has what recorded apparent KD of MS2 coat protein?
34.7 nM

Next record, please: GGAAACAAGAGAGGAUAUGCAGAGGAUCACCCUGCAGAAGGCUCAAAAGAGAGGAUAUGCAGAGGAUCACCCUGCAGAAGGCUC [pwkr ssNG DX.27] (Eterna round: R96, puzzle: Same State NG 1)
17.8 nM

----------
- Tested on: MS2 coat protein
- testSummary: apparent KD of MS2 coat protein; higher = weaker reporter binding
- particulars: Eterna round: R107; input ligand: tryptophan 2.4 mM
# apparent KD of MS2 coat protein >= 40 nM gives label 1, anything below gives label 0

Determine whether this sequence has apparent KD of MS2 coat protein no lower than 40 nM: GCUGUUGCGGUGAGGUAUCCGGCUGUGGAAGGAGCGCGGAAGGCCGCAGGUAGGUCGCCACAUGAGGAUCACCCAUGUCGAUAUA [Aninati]
label 0

----------
- Tested on: MS2 coat protein
- testSummary: apparent KD of MS2 coat protein; designed switch direction (-1 OFF switch, 1 ON switch): 1; higher = weaker reporter binding
- particulars: input ligand: FMN 200 uM
measuredProperty: apparent KD of MS2 coat protein

Solved entries:
AAAAUGGUAUGUUACAUGAGGAUCACCCAUGUACGGUCAUCUGAGGAUAUGGUGAUGUAGAAGAAUCAGAAGGCAGACAUUUAA [AK SSNG3-V2-26] (Eterna round: R96, puzzle: Same State NG 3) :: 27.9 nM
GUAGCAUACCGAGGAUAUUCAUAAUACAUGAGGAUCACCCAUGUAAGGCCACAUUAGUGGCCUUGGGAGAAGGCGGAAUGCUAC [Xeonanis - 20 Mod43] (Eterna round: R96, puzzle: Same State NG 2) :: 13.7 nM
GAGAGAUGAUUAGGAUAUACGGUGAUAAUGAUAGUAGAAGGAAUUGACAUGAGGAUCACCCAUGUGGGAAUAAUCCAGAGAGAG [Parity 22 - Jieux - Same State NG 1] (Eterna round: R96, puzzle: Same State NG 1) :: 100 nM
UGGCUCAGACUAGGAUAUACGUGGUCACAUGAGGAUCACCCAUGUCUCGAGCUUCGGCUCGAGGCGUAGAAGGAGUCUGAGCCA [SSNG2/6-D2] (Eterna round: R96, puzzle: Same State NG 2) :: 145 nM
CUGCUCGUGUGAGGAUAUGCCGCCGUUUCGGCUGCAGAAGGUGCUACGUUACAUGAGGAUCACCCAUGUCUCUGUUGUUUCGUG [salish99_SSNG1_r04_944] (Eterna round: R96, puzzle: Same State NG 1) :: 20.7 nM

API: value(readout= apparent KD of MS2 coat protein, system= MS2 coat protein, query= UACUGAGUCGUAGGAUAUGUAGGAUAUGGCGAGAGCUAAGCUUGGAAGUCACUUCAGCCAGAAGGACAGAAGGACGACUCUCUC [pwkr ssNG2 2FMN + F9.13] (Eterna round: R96, puzzle: Same State NG 2) )
40 nM

// same read-out, input: CGCGGUAAGGAAGGAUAUGGGACGAAAACGUACCUAGAAGGUCCACAUGAGGAUCACCCAUGUACCAAGAAAGCCGCGAAAUUA [Cereraus] (Eterna round: R96, puzzle: Same State NG 1)
90.7 nM

Please answer likewise for GCGGAGAGGUCAGGAUAUCCAUGGAAGACACAUGAGGAUCACCCAUGUGGGAGGGAAACCAGGAGGGAGAAGGGACCGGGACGC [ssng2 v2 c] (Eterna round: R96, puzzle: Same State NG 2)
11.4 nM

----------
- Test system: K4 kissing-loop RNA reporter;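 further: bound reporter read as fluorescence of individual clusters on recovered sequencing chips by microscopy, with normalized cluster intensities fitted with a binding model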
- testSummary: apparent KD of K4 kissing-loop reporter; higher = weaker reporter binding
- particulars: Eterna round: R107; input ligand: none
Documented apparent KD of K4 kissing-loop reporter across a set of sequences
Write it as a number; the unit nM goes unstated.

Would you please look over these solved cases?
UUUAAAUAUAGUGAUGUUAUAUAACAAUGACGAGGACCGGUACGGCCGCCACUCGAGAGAGAUAAUGGUCUAUAGAAUCUAUAGC [AstrosSSTryA#4] :: 803
GCGAUUCAGUGAUGUUGGAAAUACAGGGAUACCAGCCGAAAAUAAGGCCCUUGGCAGCUUAAUAGGAAAGAACUAAGAAAGACGC [Theophylline A Same State; Euphoria Solution 3] :: 671
UAGCAUUUGCUCGAGUGAUGUUCGAGCGAAGGAGCGCGAGAAAUCGCAGGUAGGUCGCGCUCGAACUAUGAGCGAUCAUUUAUUA [Arg A Ex t2c] :: 244

Look up apparent KD of K4 kissing-loop reporter: GGUGACAGCCAGGAGUGAUGUAUAGAAUAGCGAGGACCGGUACGGCCGCCACUCGUGAAGAGAAGGGAGUGAUGUUCCGUAAUGG [Kazoo C]
170

Repeat with AUUUUUAACUGAGGAUAUCGAAUUUAUGUAGUGAUGUUACUUUAAAUUAAAAUUUUAAUUUCUUAACGAGAAGGCAGAAUAAUUA [JR_SSFMNB_Sub025]
109

What do you have for GGGAGUGAUGUUCCCACGUUGUCGGUCCUUCGAGGACCGGUACGGCCGCCACUCGCGACCCAGUGAUGUUGGGAUUCACCGUACC [Exclusion Tryptophan A Gf 13] ?
471

# repeat for UGUCAUUGGUCUGAUACCAGCUGAUCGGAAACGAUCUUGCUGGAGUGAUGUUCCAGGAAAAGCCCUUGGCAGCAGACCGAUGACU [TheoBS 10 #SwitchBubble #StaticStem]
1210

Record: CGCAAGCAGCCAGUGAUGUUGGCCGCCUUGCGAGGACCGGUACGGCCGCCACUCGAAGGCGGCUACUGGUAAACCGUCUAACGGA [Oronorenma]
66.4

Continue with CAACCGUAACACGAUACCAGCCUAGAAGCCAGUGAUGUUGGCCUUUUUUCGGAAAUGAAAGGCCCUUGGCAGCGUGGAUGAACUG [Dibibiquus]
380

Same question for GGAUAGGACACAGGAUAUGGUAGUGAUGUUACCAAACUGGUUAAACAUGUCAGAAAACUGGCAUGACCAGAAGGGUGUCCUAUCG [FmnBX 27 C11+G75] please.
66.2

Let us now turn to UGUAUGUGAUUUGAUACCAGACCAGGUGGAGGAAUCUGAGUGAUGUUCAGGUAGGUUCUGGUCCCUUGGCAGCAAAUCGCAUACU [KL-SSTheoB19]
168

What do you get for GUUACGCAUGGAAGGAGCGCUCUCCGGCUUAAUAACACAGUGAUGUUGUGAAUUUGCCGAAAGCAGGUAGGUCGCCAUGUGUAAC [Ex Arginine B K4 10] ?
453

----------
- Tested on: MS2 coat protein
- testSummary: apparent KD of MS2 coat protein; designed switch direction (-1 OFF switch, 1 ON switch): -1; higher = weaker reporter binding
- particulars: input ligand: none
As shown below, each of these sequences has a reported apparent KD of MS2 coat protein value.
Give just the numeric value; nM need not be written.

Illustrative cases are given below, each with its answer.
UAUUAGCAAGCGAGAUCCCACAUGAGGAUCACCCAUGUAGCUCGUCUUAUAAAGGUUUCGACGAAAACGUCGAGACC [Eli 91 v27] (Eterna round: R97, puzzle: Sensor, turn-off variant 1) :: 16.1
GGACGGUUAGUCAGGAUAUGCUCUACCUCGGUAGAGCAGAAGGGACAUGAGGAUCACCCAUGUGAAAACUGUUC [Omei Ex4B B37] (Eterna round: R97, puzzle: Brourd's mod of Exclusion 4) :: 24.9
AUUUAUGGAGGAUAUACUUGAGGAUCACCCAAGUGGAGUCCCGUUUGGGCGGUAAAUAGUAGAAGGCCGUCCUA [jl-ex3-4.47 ViennaUCT mod] (Eterna round: R97, puzzle: Exclusion 3) :: 14.2

I have this sequence here, GAUCUGUAAGGAUAUCGUGCAAGUUUCAAAAGAGGCUUGUGCGAGAAGGUACAUGAGGAUCACCCAUGUAGGUU [Omei Ex4 B15] (Eterna round: R97, puzzle: Exclusion 4) , and I need its recorded apparent KD of MS2 coat protein.
40.1

Entry to check: GUACCAAUUGUAGGAUAUGGAUCCGAUUAGGAUCCAGAAGGACAUGAGGAUCACCCAUGUACAUGAGGAUCACCCAUUAGGUAC [Fiskers ExNg1 - 12] (Eterna round: R96, puzzle: Exclusion NG 1)
46.1

Hey, just so you know, these numbers are from the supplement of paper PMC9170038.
